# Measurement target: human OCT1 (hOCT1) (Homo sapiens)
# Construct: expressed in transfected cells
# Experiment description: Cellular uptake of [14C] TEA or [14C] metformin in HEK293 cells overexpressing hOCT1, with or without inhibitor
# Format: cell-based
# Measurement parameters: HEK293-hOCT1, TKI 10 µM, Figure 2D
Property measured: OCT1 function (TEA transport) in presence of TKI

Compound: C=CC(=O)N1CCC[C@@H](n2nc(-c3ccc(Oc4ccccc4)cc3)c3c(N)ncnc32)C1 [Ibrutinib, ibrutinib]
Measurement target: human OCT1 (hOCT1) (Homo sapiens)
Readout value: inhibit OCT1 function

Compound: CCN(CC)CCNC(=O)c1c(C)[nH]c(/C=C2\C(=O)Nc3ccc(F)cc32)c1C [sunitinib]
Measurement target: human OCT1 (hOCT1) (Homo sapiens)
Readout value: inhibit OCT1 function

Compound: CCc1nc(C(N)=O)c(Nc2ccc(N3CCC(N4CCN(C)CC4)CC3)c(OC)c2)nc1NC1CCOCC1 [Gilteritinib, gilteritinib]
Measurement target: human OCT1 (hOCT1) (Homo sapiens)
Readout value: inhibit OCT1 function

Compound: CS(=O)(=O)CCNCc1ccc(-c2ccc3ncnc(Nc4ccc(OCc5cccc(F)c5)c(Cl)c4)c3c2)o1 [Lapatinib, lapatinib]
Measurement target: human OCT1 (hOCT1) (Homo sapiens)
Readout value: not

Compound: COc1cc(Nc2c(C#N)cnc3cc(OCCCN4CCN(C)CC4)c(OC)cc23)c(Cl)cc1Cl [bosutinib]
Measurement target: human OCT1 (hOCT1) (Homo sapiens)
Readout value: inhibit OCT1 function

Compound: COc1cc2c(Nc3ccc(Br)cc3F)ncnc2cc1OCC1CCN(C)CC1 [Vandetanib, vandetanib]
Measurement target: human OCT1 (hOCT1) (Homo sapiens)
Readout value: inhibit OCT1 function

Compound: Cc1nc(Nc2ncc(C(=O)Nc3c(C)cccc3Cl)s2)cc(N2CCN(CCO)CC2)n1 [Dasatinib, dasatinib]
Measurement target: human OCT1 (hOCT1) (Homo sapiens)
Readout value: inhibit OCT1 function

----------
# Measurement target: human OCT1 (hOCT1) (Homo sapiens, UniProt O15245)
# Construct: expressed in transfected cells
# Sequence (O15245 1-554): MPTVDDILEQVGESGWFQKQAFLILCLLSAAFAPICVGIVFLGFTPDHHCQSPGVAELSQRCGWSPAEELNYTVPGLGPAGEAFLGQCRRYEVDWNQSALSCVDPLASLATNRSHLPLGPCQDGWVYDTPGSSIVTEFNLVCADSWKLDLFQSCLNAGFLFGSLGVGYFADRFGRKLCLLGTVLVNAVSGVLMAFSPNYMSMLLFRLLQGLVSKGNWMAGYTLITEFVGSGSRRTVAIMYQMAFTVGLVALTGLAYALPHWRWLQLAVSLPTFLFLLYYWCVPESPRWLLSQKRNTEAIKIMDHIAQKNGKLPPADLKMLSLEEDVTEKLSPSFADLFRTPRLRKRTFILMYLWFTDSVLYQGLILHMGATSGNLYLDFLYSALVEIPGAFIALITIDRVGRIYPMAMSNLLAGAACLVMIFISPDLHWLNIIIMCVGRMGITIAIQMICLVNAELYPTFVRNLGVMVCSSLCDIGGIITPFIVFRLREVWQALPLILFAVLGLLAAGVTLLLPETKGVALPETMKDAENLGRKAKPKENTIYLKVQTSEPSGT
# Experiment description: Cellular uptake of [14C] TEA or [14C] metformin in HEK293 cells overexpressing hOCT1, with or without inhibitor
# Format: cell-based
# Measurement parameters: HEK293-hOCT1, [14C] TEA 2 µM, 15 min pre-incubation + 15 min co-incubation; read-out: IC50, hOCT1-mediated transport of TEA

Compound: Cc1cc2cc(C(=O)c3cnn(-c4cnc(Oc5c(F)cccc5F)cc4C)c3N)[nH]c2cc1NS(C)(=O)=O [CH6953755]
Unit spec: nM
IC50: 2760
